target: HIF-1α PAS-B domain (Homo sapiens); construct: made in house; assay: MST binding to the PAS-B domain of HIF-1α; conditions: MST; mean ± SEM, n = 2 (n = 1 for most C1 analogues, n = 3 in Figure S2); read-out: KD for HIF-1α PAS-B
pKd: −log10 of the molar value. Where a SMILES comes first, the peptide text is derived from it. [ ]: non-standard residue; d: D form. Phe(4-NO2) = N[C@@H](Cc1ccc([N+](=O)[O-])cc1)C(=O)O; Pen = CC(C)(S)[C@H](N)C(=O)O
Measurement kind: pKd

1) CC[C@H](C)[C@@H]1NC(=O)[C@H](CC(C)C)NC(=O)[C@H](CCCNC(=N)N)NC(=O)[C@H](C(C)(C)S)NC(=O)[C@H](Cc2ccccc2)NC(=O)[C@H]([C@@H](C)CC)NC1=O [Pen, cyclo-PenRLIIF] (cyclo(F[Pen]RLII)) : 5.24
2) CC[C@H](C)[C@@H]1NC(=O)[C@H](CC(C)C)NC(=O)[C@H](CCCNC(=N)N)NC(=O)[C@H](CS)NC(=O)[C@H](Cc2ccc([N+](=O)[O-])cc2)NC(=O)[C@H]([C@@H](C)CC)NC1=O [NO2, cyclo-CRLII(4-NO2)F] (cyclo(CRLII[Phe(4-NO2)])) : 5.48

* * *

Listing: pKd of selected compounds
biological target: HIF-1α PAS-B domain (Homo sapiens, UniProt Q16665); construct: made in house; assay: MST binding to the PAS-B domain of HIF-1α; details: MST; mean ± SEM, n = 2 (n = 1 for most C1 analogues, n = 3 in Figure S2); read-out: KD for HIF-1α PAS-B
Sequence (Q16665 238-349 limits assumed): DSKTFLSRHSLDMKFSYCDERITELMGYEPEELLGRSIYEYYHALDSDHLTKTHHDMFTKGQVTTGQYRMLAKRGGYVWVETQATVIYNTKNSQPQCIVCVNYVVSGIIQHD
pKd: −log10 of the molar value. Where a SMILES comes first, the peptide text is derived from it. [ ]: non-standard residue; d: D form. 1Nal = N[C@@H](Cc1cccc2ccccc12)C(=O)O
Measurement kind: pKd

1) CC[C@H](C)[C@@H]1NC(=O)[C@H](CC(C)C)NC(=O)[C@H](CCCNC(=N)N)NC(=O)[C@H](CS)NC(=O)[C@H](Cc2ccccc2)NC(=O)[C@H](C(C)C)NC1=O [V, cyclo-CRLIVF] (cyclo(CRLIVF)) : 4.80
2) CC[C@H](C)[C@@H]1NC(=O)[C@H](CC(C)C)NC(=O)[C@H](CCCNC(=N)N)NC(=O)[C@H](CS)NC(=O)[C@H](Cc2cccc3ccccc23)NC(=O)[C@H]([C@@H](C)CC)NC1=O [1-Nal, cyclo-CRLII(1-Nal)] (cyclo([1Nal]CRLII)) : 5.77
3) CC[C@H](C)[C@@H]1NC(=O)[C@H](CC(C)C)NC(=O)[C@H](C)NC(=O)[C@H](CS)NC(=O)[C@H](Cc2ccccc2)NC(=O)[C@H]([C@@H](C)CC)NC1=O [cyclo-CALIIF] (cyclo(ALIIFC)) : 4.51

* * *

Where a SMILES comes first, the peptide text is derived from it.
As a worked illustration, we turn to Kd data collected for HIF-2α PAS-B domain (Homo sapiens).
Measurement kind: Kd (µM)

1. CC[C@H](C)[C@@H]1NC(=O)[C@H](CC(C)C)NC(=O)[C@H](C)NC(=O)[C@H](CS)NC(=O)[C@H](Cc2ccccc2)NC(=O)[C@H]([C@@H](C)CC)NC1=O [cyclo-CALIIF] (cyclo(ALIIFC)) : 12.5
2. CC[C@H](C)[C@@H]1NC(=O)[C@H](CC(C)C)NC(=O)[C@H](CCCNC(=N)N)NC(=O)[C@H](CS)NC(=O)[C@H](Cc2ccccc2)NC(=O)[C@H]([C@@H](C)CC)NC1=O [cyclo-CRLIIF] (cyclo(CRLIIF)) : 10.9
3. CC[C@H](C)[C@@H]1NC(=O)[C@H](C)NC(=O)[C@H](CC(C)C)NC(=O)[C@H](CCCNC(=N)N)NC(=O)[C@H](CS)NC(=O)[C@H](Cc2ccccc2)NC1=O [cyclo-CRLAIF] (cyclo(CRLAIF)) : 61
4. CC[C@H](C)[C@@H]1NC(=O)[C@H](C)NC(=O)[C@H](CCCNC(=N)N)NC(=O)[C@H](CS)NC(=O)[C@H](Cc2ccccc2)NC(=O)[C@H]([C@@H](C)CC)NC1=O [cyclo-CRAIIF] (cyclo(CRAIIF)) : 52.3
